Data provenance is ChEMBL document CHEMBL3885881.

- Organism: Rattus norvegicus
- assay: DrugMatrix - Regimen: Daily Repeat
- Assay type: toxicity, organism-based, Sprague-Dawley
- Design: regimen Daily Repeat, gender Male, age 6-8 weeks
- applied conditions: in vivo, po, 0 mg/kg, 120 h, tissue Blood, route oral GAVAGE, dose level Control, time 5 day, […]
attribute measured: ABSOLUTE EOSINOPHIL (CELLS/uL)
Answer with a number only, understood to be in CELLS/uL.

molecule=CCn1cc(C(=O)O)c(=O)c2cc(F)c(N3CCNCC3)nc21 readout_number=331.5
molecule="CN(Cc1cnc2nc(N)nc(N)c2n1)c1ccc(C(=O)N[C@@H](CCC(=O)O)C(=O)O)cc1 [METHOTREXATE]" readout_number=331.5
molecule=CC[C@H](C)C(=O)O[C@H]1C[C@@H](C)C=C2C=C[C@H](C)[C@H](CC[C@@H]3C[C@@H](O)CC(=O)O3)[C@H]21 readout_number=0
molecule=CS(=O)(=O)OCCCCOS(C)(=O)=O readout_number=0
molecule=NC[C@@H]1O[C@H](O[C@H]2[C@@H](O)[C@H](O[C@@H]3[C@@H](O)[C@H](N)C[C@H](N)[C@H]3O[C@H]3O[C@H](CN)[C@@H](O)[C@H](O)[C@H]3N)O[C@@H]2CO)[C@H](N)[C@@H](O)[C@@H]1O readout_number=14.67
molecule=C#C[C@]1(O)CC[C@H]2[C@@H]3CCc4cc(O)ccc4[C@H]3CC[C@@]21C readout_number=331.5

Give its ABSOLUTE EOSINOPHIL value. Item: CC(=O)Nc1nnc(S(N)(=O)=O)s1 [ACETAZOLAMIDE] 0

Give the measured ABSOLUTE EOSINOPHIL of OCCN1CCN(CCCN2c3ccccc3Sc3ccc(C(F)(F)F)cc32)CC1 . 0
